Entry source: PubChem BioAssay (NCI)

Test system: SF-268 CNS
Protocol Notes: NCI-60 one-dose screen, 48 h
Test Conditions: 10 µM
Procedure: Cells are grown in 96 well plates and exposed to the test compound for 48 hours. Compounds are tested at a single concentration, which is 10^-5 M for most compounds. The reported endpoint is percent growth (GI% or GIPRCNT), where numbers from 0 - 100% represent growth inhibition, and numbers from -100% - 0 represent cell death. For example, a value of 40 represents 60% growth inhibition. A value of 0 means no net growth occurred over the course of the experiment. […]
This is part of a sample that, as a whole, favours compounds with a hit. Of some 83,000 tested, about 20% had one in any assay. Calls of active or inactive are those of the source. Rule for the calls: active = growth percent below 10; inactive = the rest.
Entry note: the call must match one of active, inactive

Illustrative cases are given below, each with its answer.
{"Molecule": "COc1ccc2c(c1)nc(N)c1c3cccnc3cn21", "Target Desc": "SF-268 CNS", "Discrete Label": "inactive"}
{"Molecule": "COc1ccc(OC)c2c1C(=O)CC2C (stereo not drawn)", "Target Desc": "SF-268 CNS", "Discrete Label": "inactive"}
{"Molecule": "COc1cc(Nc2ccnc(NCCCNc3ccnc4cc(Cl)ccc34)n2)cc(OC)c1", "Target Desc": "SF-268 CNS", "Discrete Label": "active"}
{"Molecule": "COc1ccc(Cn2c(C(N)=O)cc3c2-c2nc(N)ncc2CCC3)cc1", "Target Desc": "SF-268 CNS", "Discrete Label": "inactive"}
{"Molecule": "COc1ccc(-c2nn(-c3cccc(NC(=O)c4ccc(N5CCOCC5)c(C(F)(F)F)c4)c3)cc2-c2ccncc2)cc1Cl", "Target Desc": "SF-268 CNS", "Discrete Label": "inactive"}

Enquiry: Dear all, I need the recorded test outcome for `CSCCCNC(=O)c1ccc2c(c1)/C(=C/c1[nH]c(C)cc1C)C(=O)N2` , thank you.
Return: inactive

Enquiry: How did this test come out for CCOC1(OCC)OC(c2ccccc2)=C(C#N)C(/C=C\c2ccccc2)C1(OCC)OCC (stereo not drawn) ?
Return: inactive

Enquiry: Dear colleague, could you share the recorded outcome for CN(C)CC(O)c1ccc2cc(Br)c3ccccc3c2c1 (stereo not drawn) when you have a moment?
Return: inactive

====

Tested on: NCI/ADR-RES ovarian
Protocol Notes: NCI-60 one-dose screen, 48 h (100 = growth as untreated, 0 = no growth, -100 = all killed)
Test Conditions: 10 µM
The panel holds about 83,000 compounds, 20% with a hit somewhere; the sample as a whole holds those more often.
Parameter Measured: growth (%)
Answers are plain numbers, in %.

Solved cases (4 shown):
{"Chemical Structure": "COc1cc(NC(=O)CCSc2nc3ccc(Cl)cc3c(=O)n2Cc2ccccc2)cc(OC)c1OC", "growth / %": 84.3}
{"Chemical Structure": "c1ccc([I+]c2ccccc2)cc1", "growth / %": 91.5}
{"Chemical Structure": "COc1ccc(N=C2C(=Nc3ccc(OC)cc3)N(c3ccc(N(C)C)cc3)C(=S)N2c2ccc(OC)cc2)cc1", "growth / %": 95.8}
{"Chemical Structure": "COc1cc(-c2cc(/C=C3\\C(=O)Nc4ccc(Cl)cc43)[nH]n2)cc(OC)c1OC", "growth / %": 11.4}

For each of the compounds below, note its growth.
1. COc1ccc(-c2nn(-c3cccc(NC(=O)Nc4cc(C(F)(F)F)cc(C(F)(F)F)c4)c3)cc2-c2ccncc2)cc1Cl
2. CN(C)C(=S)N/N=C\C=N/NC(=S)N(C)C
3. O=C1Nc2ccccc2C1=NC1CCCCC1
4. Cc1ccc(Nc2cc(C)nc(NCCCNc3ccnc4cc(Cl)ccc34)n2)cc1
5. Clc1ccc(Nc2ccnc(NCCCNc3ccnc4cc(Cl)ccc34)n2)cc1

Return:
[5.83, 51.3, 103, -33, 4.05]

====

System: HOP-62 NSCLC
Protocol Notes: NCI-60 one-dose screen, 48 h (100 = growth as untreated, 0 = no growth, -100 = all killed)
Test Conditions: 10 µM
This is part of a sample that, as a whole, favours compounds with a hit. Of some 83,000 tested, about 20% had one in any assay.
Would you please tag the item true (1) when its growth is 70% or above, and false (0) when it is below?

{"Molecule": "O=C(NC(Cc1ccc(O)cc1)C(=O)N=Nc1c(O)[nH]c2ccccc12)c1ccccc1 (stereo unspecified)", "Discrete Label": "true (1)"}
{"Molecule": "COc1ccc(-c2nn(-c3cccc(NC(=O)c4ccc(N5CCOCC5)c(C(F)(F)F)c4)c3)cc2-c2ccncc2)cc1Cl", "Discrete Label": "true (1)"}
{"Molecule": "Oc1[nH]c2ccc(Cl)cc2c1/C=c1/ccc2c(c1)N=C(c1cccs1)N=2", "Discrete Label": "true (1)"}
{"Molecule": "COc1ccc2nc3cc(Cl)ccc3c(NCCNCC(C)O)c2c1 (stereo unspecified)", "Discrete Label": "false (0)"}
{"Molecule": "O=C1/C(=C\\c2ccc(F)cc2)CN(C(=O)c2ccccc2F)C/C1=C\\c1ccc(F)cc1", "Discrete Label": "false (0)"}

Enquiry: Could you tell me if the measured growth of CCCCCCCCCCCCC1C/C=C\CCCC(=O)O1 (stereo unspecified) reaches 70% or more?
Return: true (1)

Enquiry: Check this molecule for growth at or above 70%: `CC1(C)N=C(N)N=C(N)N1c1ccc(CCc2ccccc2)c(Cl)c1`
Return: false (0)

====

System: SNB-75 CNS
Protocol Notes: NCI-60 one-dose screen, 48 h
Test Conditions: 10 µM
This is part of a sample that, as a whole, favours compounds with a hit. Of some 83,000 tested, about 20% had one in any assay. Activity calls are given as the source filed them. Rule for the calls: active = growth percent below 10; inactive = the rest.
Lab note: assign the record to one of Yes = active, No = inactive

{"Molecule": "COc1ccc2nc3cc(Cl)ccc3c(NCCNCC(C)O)c2c1 (stereo not drawn)", "Discrete Label": "No"}
{"Molecule": "Oc1[nH]c2ccc(Cl)cc2c1/C=c1/ccc2c(c1)N=C(c1cccs1)N=2", "Discrete Label": "Yes"}
{"Molecule": "COC(=O)C(C(C[N+](=O)[O-])c1ccccc1)=P(c1ccccc1)(c1ccccc1)c1ccccc1 (stereo not drawn)", "Discrete Label": "No"}
{"Molecule": "COc1cc2c(cc1OC)N(CCO)C1=C(C(=O)OC1)C2c1ccc(Cl)c(Cl)c1 (stereo not drawn)", "Discrete Label": "No"}
{"Molecule": "COc1cc(/C=C\\c2cc(OC)c(OC)c(OC)c2)cc(NS(=O)(=O)c2ccc(Cl)cc2)c1OC", "Discrete Label": "No"}

Enquiry: # lookup: test call for `N#CCCN1C/C(=C/c2ccccc2)C(=O)/C(=C/c2ccccc2)C1`
Return: No

Enquiry: How was CCOC(=O)C(CSC(c1ccccc1)(c1ccccc1)c1ccccc1)NC(=O)C(CSC(c1ccccc1)(c1ccccc1)c1ccccc1)NC(c1ccccc1)(c1ccccc1)c1ccccc1 (stereo not drawn) classified in this test?
Return: No

Enquiry: Please share the test call associated with `COc1ccc(OC)c(/C=C/c2nnc(Nc3ccc(Cl)cc3)o2)c1` .
Return: No

Enquiry: Hi team, can someone confirm the assay call for `CN(C)CCCn1c(=O)c2ccccc2c2cnc3[nH]ccc3c21` ?
Return: No

====

Please respond with reported growth for every item in the list.
Test system: OVCAR-5 ovarian
Protocol Notes: NCI-60 one-dose screen, 48 h (100 = growth as untreated, 0 = no growth, -100 = all killed)
Test Conditions: 10 µM
Compounds without any hit were thinned out: in the full panel of roughly 83,000, 20% have a hit. Activity calls are given as the source filed them. Rule for the calls: active = growth percent below 10; inactive = the rest.

{"Compound": "CC1(C)OC2=C(CC1Br)C(=O)C(=O)c1ccccc12 (stereo not drawn)", "Parameter Measured": "growth", "Assay Result": "-80.5% (active)"}
{"Compound": "CSCCCNC(=O)c1ccc2c(c1)/C(=C/c1[nH]c(C)cc1C)C(=O)N2", "Parameter Measured": "growth", "Assay Result": "35.9% (inactive)"}

# next compound below
Enquiry: Test system OVCAR-5 ovarian; read-out growth; what value for `COc1ccc(Oc2nc(NC3CCCC3)nc(Sc3ccc(OC)cc3)n2)cc1` ?
Return: 91.1% (inactive)

====

Test system: BT-549 breast
Protocol Notes: NCI-60 one-dose screen, 48 h (100 = growth as untreated, 0 = no growth, -100 = all killed)
Test Conditions: 10 µM
This is part of a sample that, as a whole, favours compounds with a hit. Of some 83,000 tested, about 20% had one in any assay.
Binary call on growth with cut-off 80%: strictly below means true (1), and equality or higher means false (0).

{"Compound": "COc1ccc2nc3ccccc3c(NCCNCC(C)O)c2c1 (centres undefined)", "Discrete Label": "true (1)"}
{"Compound": "O=C(Nc1nc2ccc(F)cc2s1)c1cc(-c2ccc(F)cc2)n2nc(-c3ccccc3)cc2n1", "Discrete Label": "false (0)"}
{"Compound": "O=C(CSSCC(=O)c1ccc(Cl)cc1)c1ccc(Cl)cc1", "Discrete Label": "false (0)"}

Enquiry: Decide: growth of COc1cc([C@@H]2c3cc4c(cc3C(Br)[C@H]3COC(=O)[C@H]23)OCO4)cc(OC)c1OC (some centres undefined) strictly below 80%?
Return: true (1)

Enquiry: Below 80% on growth? Entry `CCCCCCCCN(CCCCCCCC)CCCCCCCCCN1CCCc2cc(OC)ccc21`
Return: false (0)

Enquiry: hey, is growth for `N=C1c2nc3n(c2C(=O)c2nc4n(c21)CCCC4)CCCC3` lower than 80% or not?
Return: true (1)

Enquiry: Given `O=C1Nc2ccccc2C1=NC1CCCCC1` , is recorded growth strictly lower than 80%?
Return: false (0)

Enquiry: Strictly below 80% in growth? `CC(=O)/C(=C/c1ccccc1)C(=O)CC(C)C`
Return: false (0)
